// provenance: patent US20110059889A1

List of log10 of Kd values.
ASSAYED_SYSTEM: T1, soluble human FcRn (shFcRn) (human, UniProt P55899 24-297; P61769 21-119)
T1 construct: Biotinylated for the ELISA, amine-coupled to a CM5 chip for SPR; also called biotinylated shFcRn
T1 sequence (P55899 24-297 limits assumed, chain 1 of 2): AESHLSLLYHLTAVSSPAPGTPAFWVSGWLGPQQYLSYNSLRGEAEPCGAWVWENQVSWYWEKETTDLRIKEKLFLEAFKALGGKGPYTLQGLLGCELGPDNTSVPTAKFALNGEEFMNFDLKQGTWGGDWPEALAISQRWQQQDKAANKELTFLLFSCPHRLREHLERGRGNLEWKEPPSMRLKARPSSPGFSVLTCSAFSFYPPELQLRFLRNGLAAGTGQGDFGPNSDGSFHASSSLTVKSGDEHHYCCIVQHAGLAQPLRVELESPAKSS
T1 sequence (P61769 21-119 limits assumed, chain 2 of 2): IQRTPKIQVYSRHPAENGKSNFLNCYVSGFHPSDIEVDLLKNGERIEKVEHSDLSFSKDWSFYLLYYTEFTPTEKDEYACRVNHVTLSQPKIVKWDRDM
METHOD_SUMMARY: SPR pH 6
Bridge positions count the residues as written; N and C are the ends. Square brackets hold non-standard residues; d marks the D form. Ends that are not written are not given here. Pen = CC(C)(S)[C@H](N)C(=O)O; hCys = N[C@@H](CCS)C(=O)O
ENDPOINT_NAME: log10 of Kd (log10 of the value in nM)

BINDER	log10 of Kd
QRF[Pen]TGHFGGLYP[Pen]NGP-NH2 (disulfide 4-14; N-terminus assumed; SMILES CC(C)C[C@@H]1NC(=O)CNC(=O)CNC(=O)[C@H](Cc2ccccc2)NC(=O)[C@H](Cc2c[nH]cn2)NC(=O)CNC(=O)[C@H]([C@@H](C)O)NC(=O)[C@@H](NC(=O)[C@H](Cc2ccccc2)NC(=O)[C@H](CCCNC(=N)N)NC(=O)[C@@H](N)CCC(N)=O)C(C)(C)SSC(C)(C)[C@@H](C(=O)N[C@@H](CC(N)=O)C(=O)NCC(=O)N2CCC[C@H]2C(N)=O)NC(=O)[C@@H]2CCCN2C(=O)[C@H](Cc2ccc(O)cc2)NC1=O) [Peptide No. 34]	2.57
QRFCTGHFGGLYP[hCys]NGP-NH2 (disulfide 4-14; N-terminus assumed; SMILES CC(C)C[C@@H]1NC(=O)CNC(=O)CNC(=O)[C@H](Cc2ccccc2)NC(=O)[C@H](Cc2c[nH]cn2)NC(=O)CNC(=O)[C@H]([C@@H](C)O)NC(=O)[C@@H](NC(=O)[C@H](Cc2ccccc2)NC(=O)[C@H](CCCNC(=N)N)NC(=O)[C@@H](N)CCC(N)=O)CSSCC[C@@H](C(=O)N[C@@H](CC(N)=O)C(=O)NCC(=O)N2CCC[C@H]2C(N)=O)NC(=O)[C@@H]2CCCN2C(=O)[C@H](Cc2ccc(O)cc2)NC1=O) [Peptide No. 27]	3.59
QRF[hCys]TGHFGGLYP[hCys]NGP-NH2 (disulfide 4-14; N-terminus assumed; SMILES CC(C)C[C@@H]1NC(=O)CNC(=O)CNC(=O)[C@H](Cc2ccccc2)NC(=O)[C@H](Cc2c[nH]cn2)NC(=O)CNC(=O)[C@H]([C@@H](C)O)NC(=O)[C@@H](NC(=O)[C@H](Cc2ccccc2)NC(=O)[C@H](CCCNC(=N)N)NC(=O)[C@@H](N)CCC(N)=O)CCSSCC[C@@H](C(=O)N[C@@H](CC(N)=O)C(=O)NCC(=O)N2CCC[C@H]2C(N)=O)NC(=O)[C@@H]2CCCN2C(=O)[C@H](Cc2ccc(O)cc2)NC1=O) [Peptide No. 28]	3.58
QRF[Pen]TGHFG[dP]LYP[Pen]NGP-NH2 (disulfide 4-14; N-terminus assumed; SMILES CC(C)C[C@@H]1NC(=O)[C@H]2CCCN2C(=O)CNC(=O)[C@H](Cc2ccccc2)NC(=O)[C@H](Cc2c[nH]cn2)NC(=O)CNC(=O)[C@H]([C@@H](C)O)NC(=O)[C@@H](NC(=O)[C@H](Cc2ccccc2)NC(=O)[C@H](CCCNC(=N)N)NC(=O)[C@@H](N)CCC(N)=O)C(C)(C)SSC(C)(C)[C@@H](C(=O)N[C@@H](CC(N)=O)C(=O)NCC(=O)N2CCC[C@H]2C(N)=O)NC(=O)[C@@H]2CCCN2C(=O)[C@H](Cc2ccc(O)cc2)NC1=O) [Peptide No. 295]	2.45
QRF[Pen]TGHFGGLYPCNGP-NH2 (disulfide 4-14; N-terminus assumed; SMILES CC(C)C[C@@H]1NC(=O)CNC(=O)CNC(=O)[C@H](Cc2ccccc2)NC(=O)[C@H](Cc2c[nH]cn2)NC(=O)CNC(=O)[C@H]([C@@H](C)O)NC(=O)[C@@H](NC(=O)[C@H](Cc2ccccc2)NC(=O)[C@H](CCCNC(=N)N)NC(=O)[C@@H](N)CCC(N)=O)C(C)(C)SSC[C@@H](C(=O)N[C@@H](CC(N)=O)C(=O)NCC(=O)N2CCC[C@H]2C(N)=O)NC(=O)[C@@H]2CCCN2C(=O)[C@H](Cc2ccc(O)cc2)NC1=O) [Peptide No. 32]	2.40
